PROCEDURE_DETAILS: in vivo
CONDITIONS_USED: male, Sprague-Dawley, rat, plasma, po, 150 mg/kg, Cmax of D-Methionine, PO 150 mg/kg, suspension
READOUT_TYPE: Cmax (µg/mL)
Report the value in µg/mL with no unit label.

Problem: Record request: Cmax value, item "CSCC[C@@H](N)C(=O)O"
Solution: 71.1

###

PROCEDURE_DETAILS: in vivo
CONDITIONS_USED: male, Sprague-Dawley, rat, plasma, iv, 150 mg/kg, Mean Plasma Concentrations of D-Methionine, IV 150 mg/kg, solution; 0.50 h
READOUT_TYPE: concentration at 0.5 h (ng/mL)
Report the value in ng/mL with no unit label.

Problem: Record request: concentration at 0.5 h value, item CSCC[C@@H](N)C(=O)O [D-Methionine, D-methionine]
Solution: 106

###

PROCEDURE_DETAILS: in vivo
CONDITIONS_USED: male, Sprague-Dawley, rat, plasma, iv, 150 mg/kg, Mean Plasma Concentrations of D-Methionine, IV 150 mg/kg, solution; 4.00 h
READOUT_TYPE: concentration at 4 h (ng/mL)
Report the value in ng/mL with no unit label.

Problem: Record request: concentration at 4 h value, item "CSCC[C@@H](N)C(=O)O"
Solution: 6.13

###

PROCEDURE_DETAILS: in vivo
CONDITIONS_USED: male, Sprague-Dawley, rat, plasma, po, 150 mg/kg, T1/2 of D-Methionine, PO 150 mg/kg, suspension
READOUT_TYPE: half-life (h)
Report the value in h with no unit label.

Problem: Record request: half-life value, item "CSCC[C@@H](N)C(=O)O"
Solution: 1

###

PROCEDURE_DETAILS: in vivo
CONDITIONS_USED: male, Sprague-Dawley, rat, plasma, po, 150 mg/kg, Mean Plasma Concentrations of D-Methionine, PO 150 mg/kg, solution; 0.50 h
Experimental: Twenty-six male Sprague-Dawley rats weighing approximately 200 to 300 g were used for the study. The jugular vein of six animals were cannulated and the rest of the animals were used without any further preparation. Dosing was conducted on two occasions. […] The drug was prepared in a suspension formulation in accordance with the present invention. […] L-Methinione can also be detected under the same HPLC conditions. […]
READOUT_TYPE: concentration at 0.5 h (ng/mL)
Report the value in ng/mL with no unit label.

Problem: Record request: concentration at 0.5 h value, item CSCC[C@@H](N)C(=O)O [D-Methionine, D-methionine]
Solution: 77.1

###

PROCEDURE_DETAILS: in vivo
CONDITIONS_USED: male, Sprague-Dawley, rat, plasma, iv, 150 mg/kg, Mean Plasma Concentrations of D-Methionine, IV 150 mg/kg, solution; 1.00 h
READOUT_TYPE: concentration at 1 h (ng/mL)
Report the value in ng/mL with no unit label.

Problem: Record request: concentration at 1 h value, item "CSCC[C@@H](N)C(=O)O"
Solution: 64

###

PROCEDURE_DETAILS: in vivo
CONDITIONS_USED: male, Sprague-Dawley, rat, plasma, po, 300 mg/kg, T1/2 of D-Methionine, PO 300 mg/kg, suspension
READOUT_TYPE: half-life (h)
Report the value in h with no unit label.

Problem: Record request: half-life value, item CSCC[C@@H](N)C(=O)O [D-Methionine, D-methionine]
Solution: 1.1
